Attribution: patent US20120264685A1

System Under Test: human GLP-1 receptor (human, UniProt P43220 24-463)
Test Details: cell-based or functional assay
Where no end group is shown, it is not given here. [ ]: non-standard residue; d: D form. Bip(2'-Et-4'-OMe) = CCc1cc(OC)ccc1-c1ccc(C[C@H](N)C(=O)O)cc1; αMePhe(2,6-F2) = C[C@](N)(Cc1c(F)cccc1F)C(=O)O; αMePhe(2-F) = C[C@](N)(Cc1ccccc1F)C(=O)O; αMeBip(OMe) = alpha-methylated Bip(OMe); hhPhe = N[C@@H](CCCc1ccccc1)C(=O)O; αMeD = C[C@](N)(CC(=O)O)C(=O)O; αMeP = C[C@@]1(C(=O)O)CCCN1; αMeAPPA = not defined here; αMeS = C[C@](N)(CO)C(=O)O; Aib = CC(C)(N)C(=O)O
Documented cAMP release, % activity with respect to control, at 100 nM across a set of binders
Metric Name: cAMP release, % activity with respect to control, at 100 nM

Binder | Endpoint Value
VHSQGT[αMePhe(2,6-F2)]TSD[αMeBip(OMe)][αMeAPPA] (not fully specified (C-terminus); printed as VHSQGT-(αMe-2,6-diF-Phe)-TSD-(αMe-Bip(OMe))-(αMe-APPA); reading uncertain) [Seq. ID. No. 149] | 85 % of control
VH[αMeP]QGTFTSD[Bip(2'-Et-4'-OMe)][αMeAPPA] (not fully specified (C-terminus); printed as VH-(αMe-Pro)-QGTFTSD-Bip(OMe)-(αMe-APPA); reading uncertain) [Seq. ID. No. 84] | 87 % of control
VH[αMeP]QGTFT[αMeS][αMeD][Bip(2'-Et-4'-OMe)][αMeAPPA] (not fully specified (C-terminus); printed as VH-(αMe-Pro)-QGTFT-(αMe-Ser)-(αMe-Asp)-Bip(OMe)-(αMe-APPA); reading uncertain) [Seq. ID. No. 110] | 99 % of control
VH[αMeP]QGT[αMePhe(2-F)]TS[αMeD][αMeBip(OMe)][hhPhe]-NH2 [Seq. ID. No. 68] | 87 % of control
VHAEGTFTSD[αMeBip(OMe)][hhPhe] (not fully specified (C-terminus); printed as VHAEGTFTSD-(αMe-Bip(OMe))-(APPA)) [Seq. ID. No. 12] | 91 % of control
VH[Aib]EGTFTS[αMeD][αMeBip(OMe)][αMeAPPA] (not fully specified (C-terminus); printed as VH-Aib-EGTFTS-(αMe-Asp)-(αMe-Bip(OMe))-(αMe-APPA); reading uncertain) [Seq. ID. No. 187] | 99 % of control
VH[αMeP]EGT[αMePhe(2-F)]T[αMeS][αMeD][Bip(2'-Et-4'-OMe)][αMeAPPA] (not fully specified (C-terminus); reading uncertain) [Seq. ID. No. 122] | 99 % of control
